assay: Fragrance burst (perfume headspace) of single perfumes in 5% sodium laurate shower product diluted through the CMC; format: physicochemical; conditions: diluted through the CMC (FIG. 3)
# if measured fragrance burst < 300%: T  # else: F

{"MOLECULE": "CC(=O)/C=C/C1C(C)=CCCC1(C)C (stereo not drawn) [α-ionone]", "ASSIGNED LABEL": "F"}
{"MOLECULE": "CC1=CCC2CC1C2(C)C (stereo not drawn) [α-pinene]", "ASSIGNED LABEL": "T"}
{"MOLECULE": "Cc1ccc(C(C)C)cc1 [p-Cymene]", "ASSIGNED LABEL": "T"}
{"MOLECULE": "CC(=O)/C(C)=C/C1C(C)=CCCC1(C)C (centres unmarked) [γ-methyl ionone]", "ASSIGNED LABEL": "F"}
{"MOLECULE": "CCC(C)(O)CCCC(C)C (centres unmarked) [Tetrahydrolinolool]", "ASSIGNED LABEL": "F"}
